Items are presented alongside their recorded TGI.
- Test system: NCI-H23 lung
- ASSAY REMARKS: NCI tumour cell line growth inhibition, 48 h

COMPOUND: CCCC[P+](CCCC)(CCCC)C(C(=O)OC)C(C(=O)OC)=C1SC(C(=O)OC)=C(C(=O)OC)S1 (stereo not drawn)
TGI: > 100 µM
//
COMPOUND: Cc1cccc2c1CC(C1OC(=O)c3c(C)cccc31)C2=O (stereo not drawn)
TGI: > 100 µM
//
COMPOUND: Nc1nc(SCC(=O)O)[nH]c(=O)c1N
TGI: > 100 µM

* * *

- System: KM12 colon
- ASSAY REMARKS: NCI tumour cell line growth inhibition, 48 h; in the data active means GI50 below about 0.43 µM; inactive means the rest
Labels: Y (active), N (inactive)

RECORD SMILES: NCCCn1c2c(c3ccccc3c1=O)C(=O)c1cc3c(cc1-2)OCO3
CATEGORY LABEL: Y
--
RECORD SMILES: CCNCCNc1cc(-c2ccc(Cl)cc2)c(C#N)c2nc3ccccc3n12
CATEGORY LABEL: N
--
RECORD SMILES: OCc1ccc(N(Cc2ccc(F)cc2)C2CCC2)cc1Cl
CATEGORY LABEL: N
--
RECORD SMILES: Clc1ccc(Nc2ccnc(NCCNc3ccnc4cc(Cl)ccc34)n2)cc1
CATEGORY LABEL: N
--
RECORD SMILES: COc1c(O)cc2oc3cc(O)c(CC=C(C)C)c(O)c3c(=O)c2c1C/C=C(\C)CCC=C(C)C
CATEGORY LABEL: N
--
RECORD SMILES: COc1cc2c3c(n(CCCO)c(=O)c2cc1OC)-c1cc2c(cc1C3=O)OCO2
CATEGORY LABEL: N
--
RECORD SMILES: Cn1cc(-c2nc(-c3c[nH]c4ncccc34)cs2)c2cc(Cl)ccc21
CATEGORY LABEL: N
--
RECORD SMILES: COc1cc(-c2cc(C(=O)Nc3nc4ccccc4s3)nc3cc(-c4ccccc4)nn23)cc(OC)c1OC
CATEGORY LABEL: N
--
RECORD SMILES: Cc1c(C(=O)CCl)c(=O)n(-c2ccccc2)n1C
CATEGORY LABEL: N
--
RECORD SMILES: O=C(Nc1cccc(NS(=O)(=O)c2ccc(F)cc2)c1)c1ccc(-c2ccccc2)cc1
CATEGORY LABEL: N
